Reference source for all entries: ChEMBL document CHEMBL5236670

Assay: Metabolic stability in rat liver microsomes assessed as compound remaining at 0.5 uM after 10 mins
Format: ADME, Microsome
Conditions: read-out: Stability
readout.type: remaining at 10 min, 0.5 µM (%)

(1) O=C(Nc1cnccc1C1CCCCC1)c1ccnc(NC(=O)C2CC2)c1
(2) CC(C)(O)c1ccncc1NC(=O)c1ccnc(NC(=O)C2CC2)c1
(3) C[C@H]1CN(c2ccncc2NC(=O)c2ccnc(NC(=O)C3CC3)c2)CCO1
Asked: Number of compounds to sort: 3. Sort criterion: remaining at 10 min, 0.5 µM, ascending. Lab note: final answer is the ordered label list.
Given back: 1, 3, 2
(1: 0.4%, 3: 40%, 2: 100%)

(P) C[C@@H]1COCCN1c1ccncc1NC(=O)c1ccnc(NC(=O)C2CC2)c1
(Q) O=C(Nc1cnccc1C1CCC1)c1ccnc(NC(=O)C2CC2)c1
(R) CC(O)c1ccncc1NC(=O)c1ccnc(NC(=O)C2CC2)c1 (configuration not stated)
(S) C[C@@H]1CN(c2ccncc2NC(=O)c2ccnc(NC(=O)C3CC3)c2)C[C@H](C)O1
Asked: List from greatest to least remaining at 10 min, 0.5 µM. Would you mind listing the labels in the order requested?
Given back: R, Q, S, P

(A) O=C(Nc1cnccc1C1CCCC1)c1ccnc(NC(=O)C2CC2)c1
(B) Cc1ccncc1NC(=O)c1ccnc(NC(=O)C2CC2)c1
(C) CC1(C)CN(c2ccncc2NC(=O)c2ccnc(NC(=O)C3CC3)c2)CCO1
Asked: Reorder the items by remaining at 10 min, 0.5 µM, least to greatest. Note for the reader: the ranking is given by listing the labels in the order requested.
Given back: A, C, B
